experiment: qHTS assay for identifying genotoxic compounds that show differential cytotoxicity against isogenic chicken DT40 cell lines with known DNA damage response pathways - wild type cell line (AID 743012); details: DT40 wild type chicken cells viability, CellTiter-Glo, 40 h; series mostly up to 68.4 µM; note: nearly all actives have a fitted effect of over 60% in size
Results filed as inconclusive are left out. The source made the active and inactive calls. Calls come from the whole dose curve; as a rule, active = well fitted cell-killing curve with a large enough effect in the repeat runs; inconclusive = weak or mixed curves, or effect the other way; inactive = no such curve, though single readings can be large or run the other way.
Respond only with the outcome that fits, drawn from Yes for active, No for inactive

| molecule | category |
| --- | --- |
| CN1CC(=O)N/C1=N/C(=O)Nc1cccc(Cl)c1 | No |

**Query** Status in this test for CN(C)CCN(C)CCN(C)C ?
**Result** No

**Query** I would be grateful if you could indicate the recorded call for C[C@H]1[C@H](NC(=O)/C(=N/OC(C)(C)C(=O)O)c2csc(N)n2)C(=O)N1S(=O)(=O)O (stereo in doubt) .
**Result** No

**Query** Field: outcome | Entry: CCN1C=CN(C)C1C (centres undefined)
**Result** No

**Query** Which outcome did this test record for the molecule COc1ccccc1OCC1CNC(=O)O1 (centres undefined) ?
**Result** No

**Query** Give the logged outcome of this assay for the following molecule: COC(=O)C1=C(C)NC(C)=C(C(=O)OC(C)C)C1c1cccc2nonc12 (centres undefined)
**Result** No

**Query** What outcome does the record of this test show for CCOc1ccc2nc(S(N)(=O)=O)sc2c1 ?
**Result** No

**Query** Recorded test outcome, item CC(CO)(CO)[N+](=O)[O-]
**Result** No
